Target: human PD-L1 (human) (UniProt Q9NZQ7)
Sequence (Q9NZQ7 19-290): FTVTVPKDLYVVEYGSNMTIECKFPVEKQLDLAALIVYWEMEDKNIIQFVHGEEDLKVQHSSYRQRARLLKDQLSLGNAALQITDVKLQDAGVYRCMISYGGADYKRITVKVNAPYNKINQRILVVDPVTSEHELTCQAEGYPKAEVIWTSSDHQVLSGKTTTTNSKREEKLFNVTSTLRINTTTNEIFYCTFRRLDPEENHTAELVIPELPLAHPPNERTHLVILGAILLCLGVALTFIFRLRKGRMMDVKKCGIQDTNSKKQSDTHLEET
Assay: flow cytometry, CHO cells expressing huPD-L1
reported_property: MFI at 33.3 nM (MFI)

{"columns": ["binder", "measured"],
 "data": [
  ["variant CD80 IgV-Fc E35D/M47L/V68M (Fc fusion) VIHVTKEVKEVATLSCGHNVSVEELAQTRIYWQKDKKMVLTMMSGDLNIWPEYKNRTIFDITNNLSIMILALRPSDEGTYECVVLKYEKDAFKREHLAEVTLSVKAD", 27900],
  ["variant CD80 IgV-Fc E35D/K37E/M47V/N48D/L85Q/D90N (Fc fusion) VIHVTKEVKEVATLSCGHNVSVEELAQTRIYWQKDKEMVLTMMSGDVDIWPEYKNRTIFDITNNLSIVILALRPSDEGTYECVVQKYEKNAFKREHLAEVTLSVKAD", 26500],
  ["variant CD80 IgV-Fc E35D/T41S/M43V/M47I/L70M/A71G (Fc fusion) VIHVTKEVKEVATLSCGHNVSVEELAQTRIYWQKDKKMVLSMVSGDINIWPEYKNRTIFDITNNLSIVIMGLRPSDEGTYECVVLKYEKDAFKREHLAEVTLSVKAD", 13000],
  ["variant CD80 IgV-Fc V22L/Q27H/E35D/M47I/A71G (Fc fusion) VIHVTKEVKEVATLSCGHNVSLEELAHTRIYWQKDKKMVLTMMSGDINIWPEYKNRTIFDITNNLSIVILGLRPSDEGTYECVVLKYEKDAFKREHLAEVTLSVKAD", 43800],
  ["variant CD80 IgV-Fc D46V/L85Q (Fc fusion) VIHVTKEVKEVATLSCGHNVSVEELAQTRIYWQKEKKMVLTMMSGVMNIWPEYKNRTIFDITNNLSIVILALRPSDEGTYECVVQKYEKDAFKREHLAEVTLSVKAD", 2200]
]}

A. variant CD80 IgV-Fc Q27H/E35D/M47I/L85Q/D90G (Fc fusion) VIHVTKEVKEVATLSCGHNVSVEELAHTRIYWQKDKKMVLTMMSGDINIWPEYKNRTIFDITNNLSIVILALRPSDEGTYECVVQKYEKGAFKREHLAEVTLSVKAD
B. variant CD80 IgV-Fc E35D/D46E/M47V/A71D (Fc fusion) VIHVTKEVKEVATLSCGHNVSVEELAQTRIYWQKDKKMVLTMMSGEVNIWPEYKNRTIFDITNNLSIVILDLRPSDEGTYECVVLKYEKDAFKREHLAEVTLSVKAD
Rank A against B by their MFI at 33.3 nM values and give the higher one. // return label of chosen record
A
